Target: MMP-2 (Homo sapiens, UniProt P08253)
Sequence (P08253 110-660): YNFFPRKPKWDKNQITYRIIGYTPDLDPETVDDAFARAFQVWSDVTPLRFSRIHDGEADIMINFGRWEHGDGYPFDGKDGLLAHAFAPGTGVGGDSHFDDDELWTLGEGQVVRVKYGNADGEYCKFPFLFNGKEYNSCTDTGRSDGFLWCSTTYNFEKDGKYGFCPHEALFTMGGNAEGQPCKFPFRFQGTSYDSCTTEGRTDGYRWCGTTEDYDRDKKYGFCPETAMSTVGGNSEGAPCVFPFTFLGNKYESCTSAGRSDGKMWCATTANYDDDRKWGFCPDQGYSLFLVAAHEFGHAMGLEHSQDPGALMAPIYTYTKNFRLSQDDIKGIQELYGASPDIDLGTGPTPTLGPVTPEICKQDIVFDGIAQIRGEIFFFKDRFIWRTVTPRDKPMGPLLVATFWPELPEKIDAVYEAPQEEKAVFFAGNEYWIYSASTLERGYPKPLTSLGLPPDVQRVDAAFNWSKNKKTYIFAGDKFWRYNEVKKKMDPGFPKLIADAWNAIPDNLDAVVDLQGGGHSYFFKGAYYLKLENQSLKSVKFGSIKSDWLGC
Experiment: biochemical
Details: Ki
The reader will find reported Ki values listed item by item below.
RECORDED ENDPOINT: Ki (µM)

COMPOUND: O=S(=O)(CCCC1CO1)c1ccc(Oc2ccccc2)cc1 (stereo not drawn) [Compound 6, 3-(4-Phenoxyphenylsulfonyl)propyloxirane]
UNITS SYMBOL: µM
RECORDED VALUE: 10.7
//
COMPOUND: O=S(=O)(CCC1CO1)c1ccc(Oc2ccccc2)cc1 (stereo not drawn) [Compound 5, 2-(4-Phenoxyphenylsulfonyl)ethyloxirane]
UNITS SYMBOL: µM
RECORDED VALUE: 5.1
//
COMPOUND: O=S(=O)(CC1CO1)c1ccc(Oc2ccccc2)cc1 (stereo not drawn) [Compound 4, (4-Phenoxyphenylsulfonyl)methyloxirane]
UNITS SYMBOL: µM
RECORDED VALUE: 25

---

The reader will find reported melting point values listed item by item below.
RECORDED ENDPOINT: melting point

MOLECULE: O=S(=O)(CC1CO1)c1ccc(Oc2ccccc2)cc1 (stereo not shown)
RECORDED ENDPOINT: melting point
RECORDED VALUE: 50 to 51 °C
//
MOLECULE: O=S(=O)(CCC1CS1)c1ccc(Oc2ccccc2)cc1 (stereo not shown)
RECORDED ENDPOINT: melting point
RECORDED VALUE: 99 to 101 °C
//
MOLECULE: O=S(=O)(CCC1CO1)c1ccc(Oc2ccccc2)cc1 (stereo not shown)
RECORDED ENDPOINT: melting point
RECORDED VALUE: 75 to 77 °C
//
MOLECULE: O=S(=O)(CCCC1CS1)c1ccc(Oc2ccccc2)cc1 (stereo not shown)
RECORDED ENDPOINT: melting point
RECORDED VALUE: 75 to 76 °C

---

molecular target: MMP-9 (Homo sapiens, UniProt P14780); experiment: biochemical
Sequence (P14780 107-707 limits assumed): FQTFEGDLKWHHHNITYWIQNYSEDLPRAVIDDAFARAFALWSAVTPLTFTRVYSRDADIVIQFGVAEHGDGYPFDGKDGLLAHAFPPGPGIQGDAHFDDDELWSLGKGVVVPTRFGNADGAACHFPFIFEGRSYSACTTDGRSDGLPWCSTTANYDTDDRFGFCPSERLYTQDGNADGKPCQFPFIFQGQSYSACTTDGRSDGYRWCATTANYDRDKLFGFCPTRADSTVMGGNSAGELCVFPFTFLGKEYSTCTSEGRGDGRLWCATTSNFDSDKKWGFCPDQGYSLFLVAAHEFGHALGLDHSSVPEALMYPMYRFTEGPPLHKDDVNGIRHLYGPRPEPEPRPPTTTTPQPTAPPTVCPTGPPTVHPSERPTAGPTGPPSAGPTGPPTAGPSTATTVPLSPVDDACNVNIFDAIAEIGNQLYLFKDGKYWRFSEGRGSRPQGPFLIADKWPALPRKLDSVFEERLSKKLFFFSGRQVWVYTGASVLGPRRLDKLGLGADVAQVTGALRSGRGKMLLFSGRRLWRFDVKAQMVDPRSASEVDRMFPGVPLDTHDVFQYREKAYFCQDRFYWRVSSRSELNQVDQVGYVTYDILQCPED
The reader will find reported Ki values listed item by item below.

COMPOUND: O=S(=O)(CCCC1CS1)c1ccc(Oc2ccccc2)cc1 (centres unmarked)
UNITS SYMBOL: µM
Ki: 181

COMPOUND: O=S(=O)(CCCC1CO1)c1ccc(Oc2ccccc2)cc1 (centres unmarked)
UNITS SYMBOL: µM
Ki: 75

COMPOUND: O=S(=O)(CCC1CO1)c1ccc(Oc2ccccc2)cc1 (centres unmarked)
UNITS SYMBOL: µM
Ki: 102

COMPOUND: O=S(=O)(CCC1CS1)c1ccc(Oc2ccccc2)cc1 (centres unmarked)
UNITS SYMBOL: µM
Ki: 44

COMPOUND: O=S(=O)(CC1CO1)c1ccc(Oc2ccccc2)cc1 (centres unmarked)
UNITS SYMBOL: µM
Ki: 186
